Collected normalized growth values appear next to each entry.
# EXPERIMENTAL PROTOCOL: chemical genetic growth profiling, strain panel (AID 1159580);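 also: tested at 20 µM; growth read once vehicle control cultures reached saturation at 30 °C; 1 = growth at the plate median or of vehicle wells; lower values mean less growth of the strain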
# MEASUREMENT PARAMETERS: S. cerevisiae deletion strains, growth OD, locus YCL069W, strain vba3, stronger effect = lower value
The whole screen tested about 5,500 compounds, of which about 2,000 (36%) were called active. Inconclusive results (about 18%) are left out. The list shows a part of the results.
Reply with just the number.

In the examples that follow, each entry is paired with its recorded normalized growth.
COMPOUND	EXPERIMENTAL VALUE
O=C(O)CCCc1ccccc1	0.981
NCCc1cnc[nH]1	1.01

# lookup: normalized growth of COc1ccc(CN(CCN(C)C)c2ccccn2)cc1
1.01

# lookup: normalized growth of COC(=O)c1cc(=O)c(O)c2c(O)c(O)ccc2c1
1

# lookup: normalized growth of Cc1ccc(C(=O)Nc2ccc(S(=O)(=O)O)c3cc(S(=O)(=O)O)cc(S(=O)(=O)O)c23)cc1NC(=O)c1cccc(NC(=O)Nc2cccc(C(=O)Nc3cc(C(=O)Nc4ccc(S(=O)(=O)O)c5cc(S(=O)(=O)O)cc(S(=O)(=O)O)c45)ccc3C)c2)c1
1.01

# lookup: normalized growth of C#CCCCCCCCCCCCc1ccco1
0.995

# lookup: normalized growth of CCCCCCCCCCCCCc1ccco1
0.989

# lookup: normalized growth of CC(=O)O[C@H]1C[C@@H](OC(C)=O)C(C)(C)C2CC(=O)[C@]3(C)C(CC[C@@]4(C)[C@H](C(=O)O)OC(=O)C5OC543)[C@]21C (some centres undefined)
0.991

# lookup: normalized growth of COc1cc([C@@H]2c3cc4c(cc3[C@@H](O)C3COC(=O)C32)OCO4)cc(OC)c1O (some centres undefined)
0.985

---

# EXPERIMENTAL PROTOCOL: chemical genetic growth profiling, strain panel (AID 1159580);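 also: tested at 20 µM; growth read once vehicle control cultures reached saturation at 30 °C; 1 = growth at the plate median or of vehicle wells; lower values mean less growth of the strain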
# MEASUREMENT PARAMETERS: S. cerevisiae deletion strains, growth OD, locus YKR091W, strain srl3, stronger effect = lower value
Hit rate of the full screen: of about 5,500 compounds, about 2,000 (36%) were called active. Not shown: some 18% with an inconclusive outcome. Some of the results follow.
QUANTITY KIND: normalized growth
Reply with just the number.

COMPOUND	QUANTITY KIND	EXPERIMENTAL VALUE
C[C@]12CCC(=O)C=C1C=CC1C2CC[C@@]2(C)C1CC[C@@]2(O)CCC(=O)O (some centres not stated)	normalized growth	1.01

# lookup: normalized growth of COc1ccc2c(c1)OC1(O)COc3cc(OC)c(OC)cc3C1=C2 (configuration not stated)
0.979

# lookup: normalized growth of Cc1ccc(S(=O)(=O)NC(=O)NN2CCCCCC2)cc1
0.983

# lookup: normalized growth of C=C1C2CC[C@@]3(C)[C@H](c4ccoc4)OC(=O)C[C@]13O[C@H]1CC(=O)C(C)(C)[C@H](C(OC(C)=O)C(=O)OC)[C@@]21C (some centres not stated)
1

# lookup: normalized growth of CCN(CC)Cc1ccc(Nc2ccnc3cc(Cl)ccc23)cc1O
1.02

# lookup: normalized growth of C[C@]12CCC(=O)C=C1C=CC1C2CC[C@@]2(C)C1CC[C@@]21CCC(=O)O1 (some centres not stated)
0.969

---

# EXPERIMENTAL PROTOCOL: chemical genetic growth profiling, strain panel (AID 1159580);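 also: tested at 20 µM; growth read once vehicle control cultures reached saturation at 30 °C; 1 = growth at the plate median or of vehicle wells; lower values mean less growth of the strain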
# MEASUREMENT PARAMETERS: S. cerevisiae deletion strains, growth OD, locus YAL013W, strain DEP1, stronger effect = lower value
Among all 5,500 compounds or so, about 2,000 (36%) were called active. Inconclusive results (about 18%) are left out. This is one part of the list.
QUANTITY KIND: normalized growth
Reply with just the number.

In the examples that follow, each entry is paired with its recorded normalized growth.
COMPOUND	normalized growth
CC(=O)S[C@@H]1CC2=CC(=O)CC[C@]2(C)[C@H]2CC[C@@]3(C)[C@@H](CC[C@@]34CCC(=O)O4)C12 (stereo partly specified)	1
CC(C)NC[C@H](O)COc1cccc2[nH]ccc12	0.999
CN1CC(CO)=C[C@@H]2c3cccc4[nH]cc(c34)C[C@H]21	0.994
CSc1nc(N)n(-c2ccccc2)n1	1
OC1(c2ccc(F)cc2)Cc2ccccc2C2=NCCN21 (stereo unspecified)	0.99
CC(=O)Oc1cc(OC(C)=O)c2c(c1)O[C@H](c1ccc(OC(C)=O)c(OC(C)=O)c1)[C@@H](OC(C)=O)C2	1
N[C@@H](Cc1ccc(N(CCCl)CCCl)cc1)C(=O)O	0.988
O=P(O)(O)C(Cl)(Cl)P(=O)(O)O	1.01

# lookup: normalized growth of CC(=O)Oc1cc(OC(C)=O)c2c(c1)O[C@H](c1ccc(OC(C)=O)c(OC(C)=O)c1)[C@H](OC(C)=O)C2
1.01

# lookup: normalized growth of CCCCNC(=O)NS(=O)(=O)c1ccc(C)cc1
0.995

# lookup: normalized growth of C[C@]12CCC(=O)C=C1C=CC1C2CC[C@@]2(C)C1CC[C@@]2(O)CCC(=O)O (stereo partly specified)
1
